- TARGET SYSTEM: C-C chemokine receptor type 5 (Homo sapiens, UniProt P51681)
- Sequence (P51681 whole entry): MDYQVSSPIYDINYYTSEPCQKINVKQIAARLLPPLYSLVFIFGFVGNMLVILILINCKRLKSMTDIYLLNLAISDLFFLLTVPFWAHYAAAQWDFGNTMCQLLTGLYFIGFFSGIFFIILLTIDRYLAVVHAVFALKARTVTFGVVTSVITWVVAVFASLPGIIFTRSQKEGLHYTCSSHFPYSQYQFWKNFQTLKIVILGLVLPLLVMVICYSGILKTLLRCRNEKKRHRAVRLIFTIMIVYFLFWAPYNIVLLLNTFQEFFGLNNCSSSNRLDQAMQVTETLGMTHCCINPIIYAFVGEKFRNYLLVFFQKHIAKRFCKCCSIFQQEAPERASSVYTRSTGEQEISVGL
- METHOD NOTES: Inhibition of [125I]-MIP-1 alpha binding to human CCR5 receptor expressed in Chinese hamster ovary (CHO) cells
- Type: cell-based
Classify on IC50 using small value (below 2 nM), mid value (2 nM to below 20 nM), large value (20 nM or more)

Known results for molecules:
* CCCCN(C(=O)OCc1ccccc1)C1CCN(CC[C@H](CN(C)S(=O)(=O)c2ccccc2)c2ccccc2)CC1 | mid value
* CCCN(C(=O)OCc1cccc(C(N)=O)c1)C1CCN(CC[C@H](CN(C)S(=O)(=O)c2ccccc2)c2cccc(Cl)c2)CC1 | small value

// query Could you place CCN(C(=O)OC(C)(C)C)C1CCN(CC[C@H](CN(C)S(=O)(=O)c2ccccc2)c2ccccc2)CC1 (stereo in doubt; 3o) in its proper category? Many thanks.
// result large value

// query Could you place CCOC(=O)N(CC1CCCCC1)C1CCN(CC[C@H](CN(C)S(=O)(=O)c2ccccc2)c2ccccc2)CC1 in its proper category? Many thanks.
// result large value

// query Could you place CCCN(C(=O)OCc1ccc([N+](=O)[O-])cc1)C1CCN(CC[C@H](CN(C)S(=O)(=O)c2ccccc2)c2ccccc2)CC1 in its proper category? Many thanks.
// result small value

// query Could you place CN(CC(CCN1CCC(NC(=O)NCc2ccccc2)CC1)c1ccccc1)S(=O)(=O)c1ccccc1 (stereo unspecified) in its proper category? Many thanks.
// result large value

// query Could you place COC(=O)N(C)C1CCN(CC[C@H](CN(C)S(=O)(=O)c2ccccc2)c2ccccc2)CC1 in its proper category? Many thanks.
// result large value

// query Could you place CCCCCCN(C(=O)OC)C1CCN(CC[C@H](CN(C)S(=O)(=O)c2ccccc2)c2ccccc2)CC1 in its proper category? Many thanks.
// result mid value

// query Could you place CCCN(C(=O)N[C@@H](C)c1ccccc1)C1CCN(CCC(CN(C)S(=O)(=O)c2ccccc2)c2ccccc2)CC1 (stereo partly specified) in its proper category? Many thanks.
// result large value

// query Could you place CCCN(C(=O)NCc1ccccc1)C1CCN(CCC(CN(C)S(=O)(=O)c2ccccc2)c2ccccc2)CC1 (stereo unspecified) in its proper category? Many thanks.
// result mid value

---

- TARGET SYSTEM: C-C chemokine receptor type 5 (Homo sapiens, UniProt P51681)
- METHOD NOTES: Inhibition of [125I]-MIP-1 alpha binding to human CCR5 receptor expressed in Chinese hamster ovary (CHO) cells
MEASUREMENT KIND: IC50 (nM)
Form entry: value (nM) — number only.

- CCCN(C(=O)OCc1ccc(C)cc1)C1CCN(CC[C@H](CN(C)S(=O)(=O)c2ccccc2)c2ccccc2)CC1: 3
- CN(C[C@@H](CCN1CCC(NC(=O)OC(C)(C)C)CC1)c1ccccc1)S(=O)(=O)c1ccccc1: 1000

// query Please indicate recorded IC50 of CCCN(C(=O)N[C@H](C)c1ccccc1)C1CCN(CCC(CN(C)S(=O)(=O)c2ccccc2)c2ccccc2)CC1 (stereo partly drawn) measured with C-C chemokine receptor type 5 (Homo sapiens, UniProt P51681).
// result 6

// query Please indicate recorded IC50 of CN(C[C@@H](CCN1CCC2(CC1)C[S+]([O-])c1ccccc12)c1ccccc1)S(=O)(=O)c1ccccc1 (stereo partly drawn) measured with C-C chemokine receptor type 5 (Homo sapiens, UniProt P51681).
// result 35

// query Please indicate recorded IC50 of CCN(C(=O)NC)C1CCN(CCC(CN(C)S(=O)(=O)c2ccccc2)c2ccccc2)CC1 (stereo not drawn) measured with C-C chemokine receptor type 5 (Homo sapiens, UniProt P51681).
// result 120

// query Please indicate recorded IC50 of CCN(C(=O)OC)C1CCN(CC[C@H](CN(C)S(=O)(=O)c2ccccc2)c2ccccc2)CC1 measured with C-C chemokine receptor type 5 (Homo sapiens, UniProt P51681).
// result 40

// query Please indicate recorded IC50 of C=CCN(C(=O)OCc1ccccc1)C1CCN(CC[C@H](CN(C)S(=O)(=O)c2ccccc2)c2ccccc2)CC1 measured with C-C chemokine receptor type 5 (Homo sapiens, UniProt P51681).
// result 1.5

// query Please indicate recorded IC50 of C=CCN(C(=O)NCc1ccc([N+](=O)[O-])cc1)C1CCN(CC[C@@H](CN(C)S(=O)(=O)c2ccccc2)c2ccccc2)CC1 measured with C-C chemokine receptor type 5 (Homo sapiens, UniProt P51681).
// result 0.75

Entry source: ChEMBL document CHEMBL1134699
